Target chain: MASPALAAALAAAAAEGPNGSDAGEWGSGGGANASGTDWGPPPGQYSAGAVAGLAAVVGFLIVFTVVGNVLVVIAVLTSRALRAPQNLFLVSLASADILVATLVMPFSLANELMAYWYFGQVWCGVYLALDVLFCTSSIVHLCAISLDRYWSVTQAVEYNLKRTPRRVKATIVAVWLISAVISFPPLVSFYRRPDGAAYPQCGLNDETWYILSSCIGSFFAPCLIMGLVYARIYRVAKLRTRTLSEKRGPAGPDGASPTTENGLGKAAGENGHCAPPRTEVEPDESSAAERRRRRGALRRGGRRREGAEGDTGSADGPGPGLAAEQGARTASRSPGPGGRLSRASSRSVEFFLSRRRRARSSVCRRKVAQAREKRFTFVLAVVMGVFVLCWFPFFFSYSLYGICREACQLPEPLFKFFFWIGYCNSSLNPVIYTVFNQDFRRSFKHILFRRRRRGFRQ
recorded-endpoint: Ki (µM)
Write the number in µM without appending the unit.

**Query** Identify measured Ki corresponding to `COc1ccccc1N1CCN(CCN(C(=O)C2CCCCC2)c2ccccn2)CC1`
**Result** 1

---

molecular target: 5-hydroxytryptamine receptor 1B (Rattus norvegicus, UniProt P28564)
Sequence (P28564 whole entry): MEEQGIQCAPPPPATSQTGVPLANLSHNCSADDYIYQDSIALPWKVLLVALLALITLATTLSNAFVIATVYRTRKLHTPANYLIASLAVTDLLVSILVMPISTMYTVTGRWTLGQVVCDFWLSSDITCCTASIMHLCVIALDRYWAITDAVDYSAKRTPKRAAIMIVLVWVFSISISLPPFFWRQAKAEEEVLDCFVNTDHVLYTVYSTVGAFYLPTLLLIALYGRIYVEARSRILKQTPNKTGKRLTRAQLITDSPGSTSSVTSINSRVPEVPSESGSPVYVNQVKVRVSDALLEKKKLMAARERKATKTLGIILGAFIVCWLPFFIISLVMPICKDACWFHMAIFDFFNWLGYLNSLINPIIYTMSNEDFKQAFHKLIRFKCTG
recorded-endpoint: Ki (nM)
State the answer as a number, implicitly in nM.

**Query** // fetch Ki; item: NC(=O)c1ccc(F)c2c1CC(N(C1CCC1)C1CCC1)CO2 (stereo unspecified) ; system: 5-hydroxytryptamine receptor 1B (Rattus norvegicus, UniProt P28564)
**Result** 1000

---

biological target: Histamine H1 receptor (Rattus norvegicus, UniProt P31390)
Sequence (P31390 whole entry): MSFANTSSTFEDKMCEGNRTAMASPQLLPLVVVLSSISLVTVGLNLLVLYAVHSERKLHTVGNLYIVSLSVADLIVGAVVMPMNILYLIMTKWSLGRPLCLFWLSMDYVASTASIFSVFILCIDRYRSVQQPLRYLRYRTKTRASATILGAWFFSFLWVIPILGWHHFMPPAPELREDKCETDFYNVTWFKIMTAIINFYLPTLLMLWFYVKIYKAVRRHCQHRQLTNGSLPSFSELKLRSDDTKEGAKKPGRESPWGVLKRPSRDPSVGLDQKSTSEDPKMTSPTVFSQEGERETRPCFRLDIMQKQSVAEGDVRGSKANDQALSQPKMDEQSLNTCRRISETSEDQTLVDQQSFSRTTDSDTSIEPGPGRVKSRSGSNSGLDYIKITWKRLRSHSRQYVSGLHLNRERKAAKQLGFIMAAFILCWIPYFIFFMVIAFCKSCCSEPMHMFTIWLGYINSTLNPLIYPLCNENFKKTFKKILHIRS
recorded-endpoint: Ki

**Query** Provide Histamine H1 receptor (Rattus norvegicus, UniProt P31390) Ki reading for `COc1ccccc1N1CCN(CCN(C(=O)C2CCCCC2)c2ccccn2)CC1` .
**Result** > 10 µM

---

biological target: 5-hydroxytryptamine receptor 2A (Rattus norvegicus, UniProt P14842)
Sequence (P14842 whole entry): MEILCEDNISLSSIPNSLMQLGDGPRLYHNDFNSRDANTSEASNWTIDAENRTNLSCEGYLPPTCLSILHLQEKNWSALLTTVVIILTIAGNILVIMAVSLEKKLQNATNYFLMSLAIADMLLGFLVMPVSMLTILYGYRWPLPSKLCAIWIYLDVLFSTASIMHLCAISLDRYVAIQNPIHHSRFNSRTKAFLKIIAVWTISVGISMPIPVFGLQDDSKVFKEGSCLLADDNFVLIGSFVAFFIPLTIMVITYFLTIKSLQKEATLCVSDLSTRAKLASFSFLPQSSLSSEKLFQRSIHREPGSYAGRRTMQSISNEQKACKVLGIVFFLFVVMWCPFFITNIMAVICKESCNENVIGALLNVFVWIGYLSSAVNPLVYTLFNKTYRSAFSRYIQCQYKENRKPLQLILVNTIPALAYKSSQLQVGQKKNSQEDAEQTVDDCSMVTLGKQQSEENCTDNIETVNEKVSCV
recorded-endpoint: Ki (nM)
State the answer as a number, implicitly in nM.

**Query** Return reported Ki. Input molecule: `COc1ccccc1N1CCN(CCN(C(=O)C2CCCCC2)c2ccccn2)CC1`
**Result** 1100

---

target: Muscarinic acetylcholine receptor M2 (Rattus norvegicus, UniProt P10980)
Sequence (P10980 whole entry): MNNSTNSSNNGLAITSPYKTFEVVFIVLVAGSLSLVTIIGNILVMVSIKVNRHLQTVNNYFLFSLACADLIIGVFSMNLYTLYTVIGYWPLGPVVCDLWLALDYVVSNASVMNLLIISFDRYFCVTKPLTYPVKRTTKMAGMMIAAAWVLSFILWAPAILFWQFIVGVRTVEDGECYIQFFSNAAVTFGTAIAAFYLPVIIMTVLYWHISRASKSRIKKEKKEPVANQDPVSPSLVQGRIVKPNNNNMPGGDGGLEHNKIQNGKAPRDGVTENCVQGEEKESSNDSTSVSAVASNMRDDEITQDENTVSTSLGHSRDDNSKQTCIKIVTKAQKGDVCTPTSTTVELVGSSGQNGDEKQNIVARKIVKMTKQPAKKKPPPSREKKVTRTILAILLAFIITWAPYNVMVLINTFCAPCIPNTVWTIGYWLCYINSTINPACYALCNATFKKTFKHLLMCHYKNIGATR
recorded-endpoint: pKi
Conceptually, pKi converts a concentration in mol/L into minus its log10.

**Query** # return pKi of NC(=O)c1ccc(F)c2c1CC(N(C1CCC1)C1CCC1)CO2 (stereo unspecified) (system: Muscarinic acetylcholine receptor M2 (Rattus norvegicus, UniProt P10980))
**Result** 6.00

---

molecular target: D(2) dopamine receptor (Homo sapiens)
Sequence (P14416 whole entry): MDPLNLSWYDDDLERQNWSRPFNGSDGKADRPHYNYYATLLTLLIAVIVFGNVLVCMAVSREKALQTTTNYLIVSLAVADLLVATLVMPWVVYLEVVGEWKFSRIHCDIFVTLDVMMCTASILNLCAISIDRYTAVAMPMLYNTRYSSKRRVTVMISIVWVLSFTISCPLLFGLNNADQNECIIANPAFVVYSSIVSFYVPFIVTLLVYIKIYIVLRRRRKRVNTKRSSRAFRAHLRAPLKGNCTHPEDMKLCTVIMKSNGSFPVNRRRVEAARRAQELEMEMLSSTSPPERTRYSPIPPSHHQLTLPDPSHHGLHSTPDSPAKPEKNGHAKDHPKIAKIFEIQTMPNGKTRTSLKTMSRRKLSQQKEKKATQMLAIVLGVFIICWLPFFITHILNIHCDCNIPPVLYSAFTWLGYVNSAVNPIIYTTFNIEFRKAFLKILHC
recorded-endpoint: pKi
Please report pKi as the negative decimal logarithm of the molar concentration, giving only the number.

**Query** Give pKi for `COc1ccccc1N1CCN(CCN(C(=O)C2CCCCC2)c2ccccn2)CC1`
**Result** 7.10

---

pKi: −log10 of the molar value.
Below are pKi values recorded for Histamine H2 receptor (Cavia porcellus).

{"compound": "COc1ccccc1N1CCN(CCN(C(=O)C2CCCCC2)c2ccccn2)CC1", "pKi": "< 5.00"}

With those in mind, consider the next compound.
**Query** Would you please give the reported pKi of NC(=O)c1ccc(F)c2c1CC(N(C1CCC1)C1CCC1)CO2 (configuration not stated) with Histamine H2 receptor (Cavia porcellus)?
**Result** < 5.00
